Measured z-score values are reported for all entries that follow.
assay: inhibitors of hydroxyurea-induced Chk1 phosphorylation, primary screen, imaging, HeLa, phospho-Chk1 nuclear intensity (AID 1187); conditions: hydroxyurea-induced phospho-Chk1 immunofluorescence imaging, higher = more signal; also: test concentration not given here

Compound Smiles: C=C(C(=O)CC[C@@H](OC(=O)c1ccccc1-c1ccccc1C(=O)O)c1cccc(OCCO)c1)C(C)C
z-score: -0.0465
//
Compound Smiles: COCCOC(=O)N1C(=O)[C@@]2(c3cc(C#CCCO)ccc31)[C@H](c1ccc(O)cc1)N1[C@H](c3ccccc3)[C@H](c3ccccc3)OC(=O)[C@H]1[C@@H]2C(=O)NC[C@H](O)c1ccccc1
z-score: 0.345
//
Compound Smiles: Cc1ccc(S[C@]2(C(=O)NCc3ccccc3)CC(=O)N(Cc3ccccc3C(F)(F)F)[C@@H]2c2ccc(CO)cc2I)cc1
z-score: 0.923
